Reported EC50 by item:
Tested target: Estrogen receptor (Homo sapiens, UniProt P03372)
Sequence (P03372 whole entry): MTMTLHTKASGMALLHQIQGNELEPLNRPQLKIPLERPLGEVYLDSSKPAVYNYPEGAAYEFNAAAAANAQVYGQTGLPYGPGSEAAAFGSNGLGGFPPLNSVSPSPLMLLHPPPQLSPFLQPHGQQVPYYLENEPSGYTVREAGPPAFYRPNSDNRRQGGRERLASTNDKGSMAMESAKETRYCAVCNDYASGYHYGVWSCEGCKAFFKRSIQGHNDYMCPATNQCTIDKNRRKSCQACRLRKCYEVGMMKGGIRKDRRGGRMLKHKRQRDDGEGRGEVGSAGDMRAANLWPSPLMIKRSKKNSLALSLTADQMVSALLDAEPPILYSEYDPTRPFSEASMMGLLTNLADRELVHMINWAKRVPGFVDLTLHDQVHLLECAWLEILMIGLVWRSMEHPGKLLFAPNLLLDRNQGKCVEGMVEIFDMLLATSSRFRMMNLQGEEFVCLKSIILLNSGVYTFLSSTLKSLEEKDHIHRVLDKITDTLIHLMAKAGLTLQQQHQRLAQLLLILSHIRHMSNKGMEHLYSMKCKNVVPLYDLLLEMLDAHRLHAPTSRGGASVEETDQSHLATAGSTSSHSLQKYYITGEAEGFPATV
Write the answer as a number in µM, unit excluded.

Compound	Unit	EC50
CC(C)(c1ccccc1)c1ccc(O)cc1	µM	4.4

We next turn to a different compound, shown below.
Query CP(=O)(c1ccccc1)c1ccc(O)cc1 (stereo not drawn) yields EC50 of 19

---

Measurement notes: physchem
Description: Acid dissociation constant, pKa of the compound by UV spectral absorption analysis
Please mark TRUE if the recorded pKa is equal to or greater than 9, and FALSE if it falls below.

Molecule	Answer label
CP(=S)(c1ccccc1)c1ccc(O)cc1 (stereo unspecified)	FALSE
CC(C)(c1ccccc1)c1ccc(O)cc1	TRUE

Textbook exercise: given the entry Oc1ccc(P(c2ccccc2)c2ccccc2)cc1 , state whether its pKa is greater than or equal to 9.
TRUE

State whether the measured pKa reaches 9, counting equality as reaching it, for CP(=O)(c1ccccc1)c1ccc(O)cc1 (stereo unspecified)
FALSE

Does pKa meet or surpass 9 for C[Si](C)(c1ccccc1)c1ccc(O)cc1 ?
TRUE

---

Listing of entries alongside the reported logP.
Measurement notes: physchem
Cond: 1-octanol/water
Description: 1-Octanol-water partition coefficient, log P of the compound by HPLC analysis
Reply: number alone, nothing else.

A selection of reference data follows.
Molecule	logP
Oc1ccc(P(c2ccccc2)c2ccccc2)cc1	5.06
CP(=[Se])(c1ccccc1)c1ccc(O)cc1 (centres undefined)	3.27
Oc1ccc(P(=S)(c2ccccc2)c2ccccc2)cc1	4.08

Sure, the documented logP for CC(C)(c1ccccc1)c1ccc(O)cc1 is 4.2

---

The listing below reports IC50 for compounds tested on Estrogen receptor beta (Homo sapiens, UniProt Q92731).
Sequence (Q92731 whole entry, the tested form may be a part): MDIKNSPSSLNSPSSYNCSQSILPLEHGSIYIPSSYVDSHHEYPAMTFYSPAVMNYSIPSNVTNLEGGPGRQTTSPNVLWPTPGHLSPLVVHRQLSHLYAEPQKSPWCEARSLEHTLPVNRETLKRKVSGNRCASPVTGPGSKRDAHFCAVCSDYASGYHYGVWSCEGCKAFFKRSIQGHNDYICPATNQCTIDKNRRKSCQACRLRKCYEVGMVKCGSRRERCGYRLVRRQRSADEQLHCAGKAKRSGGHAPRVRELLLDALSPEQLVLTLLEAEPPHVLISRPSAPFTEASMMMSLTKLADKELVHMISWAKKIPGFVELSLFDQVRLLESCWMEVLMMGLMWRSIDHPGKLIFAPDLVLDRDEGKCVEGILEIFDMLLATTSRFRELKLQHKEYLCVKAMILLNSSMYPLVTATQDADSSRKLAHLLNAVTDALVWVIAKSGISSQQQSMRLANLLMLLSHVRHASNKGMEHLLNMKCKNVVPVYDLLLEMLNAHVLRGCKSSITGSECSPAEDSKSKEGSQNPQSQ
Number only, in µM; omit the unit.

Compound	Unit	Reported result
B.CP(c1ccccc1)c1ccc(O)cc1 (stereo not given)	µM	2.5

IC50 reported for this compound C[Si](C)(c1ccccc1)c1ccc(O)cc1 : 5

Please fill in: IC50 reported for CC(C)(c1ccccc1)c1ccc(O)cc1 = 13

Entry B.Oc1ccc(P(c2ccccc2)c2ccccc2)cc1 , IC50 reported as 2

IC50 for Oc1ccc(P(=S)(c2ccccc2)c2ccccc2)cc1 is 13

---

Measurement notes: physchem
Cond: 1-octanol/water
The following molecules are shown together with reported logP values.

Input C[Si](C)(c1ccccc1)c1ccc(O)cc1 . Output logP: 4.8

# logP (molecule: O=P(c1ccccc1)(c1ccccc1)c1ccc(O)cc1 ) is 3.22

Record summary for CP(=O)(c1ccccc1)c1ccc(O)cc1 (configuration not stated) : reported logP = 1.88

---

Tested target: Estrogen receptor (Homo sapiens, UniProt P03372)
Parameter measured: IC50

Compound	Reported result
Oc1ccc(P(=S)(c2ccccc2)c2ccccc2)cc1	20 µM
B.Oc1ccc(P(c2ccccc2)c2ccccc2)cc1	12 µM
B.CP(c1ccccc1)c1ccc(O)cc1 (stereo not given)	9.8 µM

Sample C[Si](C)(c1ccccc1)c1ccc(O)cc1 ; IC50 observed: 13 µM

Documented IC50 of CC(C)(c1ccccc1)c1ccc(O)cc1 : 24 µM

---

Tested target: Estrogen receptor beta (Homo sapiens)
Measurement notes: Agonist activity at human Gal4-fused ERbeta expressed in HEK293 cells assessed as transcriptional activation at 30 uM after 24 hrs by luciferase/beta-galactosidase reporter gene assay relative to estradiol
Assay type: cell-based
Assign T to entries whose Activity meets or exceeds 20%; assign F to the rest.

For orientation, consider the following solved cases.
Compound	Tested target	Answer label
B.CP(c1ccccc1)c1ccc(O)cc1 (stereo unspecified)	Estrogen receptor beta (Homo sapiens)	F
CC(C)(c1ccccc1)c1ccc(O)cc1	Estrogen receptor beta (Homo sapiens)	T
CP(=O)(c1ccccc1)c1ccc(O)cc1 (stereo unspecified)	Estrogen receptor beta (Homo sapiens)	T
CP(=S)(c1ccccc1)c1ccc(O)cc1 (stereo unspecified)	Estrogen receptor beta (Homo sapiens)	T

--- query ---
# bool: Activity of CP(=[Se])(c1ccccc1)c1ccc(O)cc1 (stereo unspecified) >= 20%
T

---

Measurement notes: physchem
Given measured pKa, output 1 if it is greater than or equal to 9 and 0 if not.

Completed entries (count: 2):
Compound	Answer label
CP(c1ccccc1)c1ccc(O)cc1 (stereo unspecified)	1
Oc1ccc(P(=S)(c2ccccc2)c2ccccc2)cc1	0

Hello, I need to know if CP(=[Se])(c1ccccc1)c1ccc(O)cc1 (stereo unspecified) has measured pKa not below 9. Thanks!
0

Kindly determine if pKa recorded for O=P(c1ccccc1)(c1ccccc1)c1ccc(O)cc1 is above or exactly 9.
0

---

Measurement notes: physchem
Cond: 1-octanol/water
Parameter measured: logP
Respond with the number and no other words.

Below, 3 molecules whose answers are already recorded.
Molecule	Reported result
B.CP(c1ccccc1)c1ccc(O)cc1 (centres undefined)	3.38
CP(c1ccccc1)c1ccc(O)cc1 (centres undefined)	3.67
B.Oc1ccc(P(c2ccccc2)c2ccccc2)cc1	4.96

Proceeding to the next molecule to report its logP.
logP for CP(=S)(c1ccccc1)c1ccc(O)cc1 (centres undefined) is 2.69

Reference source: ChEMBL document CHEMBL4616613
